Biological target: Human M4 (Homo sapiens)
Sequence (P08173 whole entry): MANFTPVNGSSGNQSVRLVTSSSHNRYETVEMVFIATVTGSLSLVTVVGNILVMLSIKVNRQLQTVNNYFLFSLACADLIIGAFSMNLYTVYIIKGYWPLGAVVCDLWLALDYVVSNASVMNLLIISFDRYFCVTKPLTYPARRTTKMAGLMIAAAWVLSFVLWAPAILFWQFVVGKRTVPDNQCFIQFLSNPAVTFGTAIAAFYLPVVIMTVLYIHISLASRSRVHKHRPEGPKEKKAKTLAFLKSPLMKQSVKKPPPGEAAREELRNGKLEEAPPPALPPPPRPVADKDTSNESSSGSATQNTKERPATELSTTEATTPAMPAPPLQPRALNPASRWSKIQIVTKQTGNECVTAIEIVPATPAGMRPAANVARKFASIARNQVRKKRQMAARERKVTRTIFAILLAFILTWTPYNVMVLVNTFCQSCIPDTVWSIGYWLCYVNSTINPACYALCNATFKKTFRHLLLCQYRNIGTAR
Assay: mAChR M4 cell-based functional assay (calcium flux, potentiation of EC20 acetylcholine response in CHO-K1 hM4-Gqi5 cells)
Conditions: positive allosteric modulator mode, EC20 acetylcholine; CHO-K1 cells with human M4 and Gqi5
pEC50: −log10 of the molar value.
pEC50 below 6 gives Not met; pEC50 at or above it gives Met.

Cc1nnc2ccc(C(=O)NC3CN(c4cnc(C(F)(F)F)cn4)C3)cc2c1C	Not met
Cc1nnc2ccc(C(=O)NC3CCCC3)cc2c1C	Not met
Cc1nnc2ccc(C(=O)NC3CN(c4ncc(C(F)(F)F)cc4Cl)C3)cc2c1C	Not met

Could you verify whether the entry Cc1cc(C)c2cc(C(=O)NC3CN(c4ccnc(F)c4F)C3)ccc2n1 shows pEC50 of no less than 6? Met

Could you verify whether the entry Cc1cc(C)c2cc(C(=O)NC3CN(c4nccc(Br)c4Cl)C3)ccc2n1 shows pEC50 of no less than 6? Not met

Could you verify whether the entry Cc1nnc2ccc(C(=O)NCc3ccc(C(C)(C)O)cc3)cc2c1C shows pEC50 of no less than 6? Not met

Could you verify whether the entry Cc1nnc2ccc(C(=O)NC3CN(c4ncc(F)cn4)C3)cc2c1C shows pEC50 of no less than 6? Not met

Could you verify whether the entry COc1cc(N2CC(NC(=O)c3ccc4nnc(C)c(C)c4c3)C2)c(Cl)cn1 shows pEC50 of no less than 6? Met

Could you verify whether the entry Cc1cc(C)c2cc(C(=O)NCc3ccncc3)ccc2n1 shows pEC50 of no less than 6? Not met

Could you verify whether the entry Cc1nnc2ccc(C(=O)NC3CN(c4ncc(Cl)cc4F)C3)cc2c1C shows pEC50 of no less than 6? Met

Could you verify whether the entry Cc1cc(C)c2cc(C(=O)NCc3cccnc3)ccc2n1 shows pEC50 of no less than 6? Not met
